Entry source: patent US20220040297A1

Each entry below lists one item and its recorded ratio of amounts bound vs CE115HA000 value.
# target: T1, CD3ε homodimer protein (human, UniProt P07766 23-126, limits assumed, sulfo-tag or biotin label in some ECL assays)
# T1 construct: also called human CD3ε homodimer protein; CD3 (CD3ε)
# T1 sequence (P07766 23-126 limits assumed): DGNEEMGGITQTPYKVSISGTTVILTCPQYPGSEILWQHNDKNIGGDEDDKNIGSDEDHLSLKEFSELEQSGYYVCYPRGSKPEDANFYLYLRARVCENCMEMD
# assay.procedure: SPR, CD3ε homodimer on chip;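 note: biacore SPR with antibody variants flowed as analyte over amine-coupled CD3ε homodimer on a CM chip, bound amount of each single-residue H chain variant over that of parent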
recorded.metric: ratio of amounts bound vs CE115HA000

>>> value_measured("CE115HA000 A52aE (antibody, name in Kabat numbering, V domains shown) VH: QVQLVESGGGVVQPGRSLRLSCAASGFTFSNAWMHWVRQAPGKGLEWVAQIKEKSNNYATYYAESVKGRFTISRDDSKNSLYLQMNSLKTEDTAVYYCRYVHYGAYYGVDAWGQGTTVTVSS VL: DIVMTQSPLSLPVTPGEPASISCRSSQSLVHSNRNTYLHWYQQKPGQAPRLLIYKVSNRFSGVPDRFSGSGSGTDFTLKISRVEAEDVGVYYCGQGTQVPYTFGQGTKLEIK")
0.57
>>> value_measured("CE115HA000 G100bY (antibody, name in Kabat numbering, V domains shown) VH: QVQLVESGGGVVQPGRSLRLSCAASGFTFSNAWMHWVRQAPGKGLEWVAQIKAKSNNYATYYAESVKGRFTISRDDSKNSLYLQMNSLKTEDTAVYYCRYVHYGAYYYVDAWGQGTTVTVSS VL: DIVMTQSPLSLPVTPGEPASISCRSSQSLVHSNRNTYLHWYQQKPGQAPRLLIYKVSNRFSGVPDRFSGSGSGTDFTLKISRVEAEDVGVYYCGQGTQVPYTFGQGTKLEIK")
0.23
>>> value_measured("CE115HA000 N31F (antibody, name in Kabat numbering, V domains shown) VH: QVQLVESGGGVVQPGRSLRLSCAASGFTFSFAWMHWVRQAPGKGLEWVAQIKAKSNNYATYYAESVKGRFTISRDDSKNSLYLQMNSLKTEDTAVYYCRYVHYGAYYGVDAWGQGTTVTVSS VL: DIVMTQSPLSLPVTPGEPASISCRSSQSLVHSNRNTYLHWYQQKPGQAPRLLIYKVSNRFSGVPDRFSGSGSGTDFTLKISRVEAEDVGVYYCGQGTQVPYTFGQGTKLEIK")
0.62
